Every entry's value here was drawn from patent US12539292B2.

# system-tested: BRM (Homo sapiens, UniProt P51531)
# Construct: In-Cell Western Screen of BRM Degradation in SW1573 Cells; endogenous in cells; host or cells: SW1573
# Sequence (P51531 whole entry): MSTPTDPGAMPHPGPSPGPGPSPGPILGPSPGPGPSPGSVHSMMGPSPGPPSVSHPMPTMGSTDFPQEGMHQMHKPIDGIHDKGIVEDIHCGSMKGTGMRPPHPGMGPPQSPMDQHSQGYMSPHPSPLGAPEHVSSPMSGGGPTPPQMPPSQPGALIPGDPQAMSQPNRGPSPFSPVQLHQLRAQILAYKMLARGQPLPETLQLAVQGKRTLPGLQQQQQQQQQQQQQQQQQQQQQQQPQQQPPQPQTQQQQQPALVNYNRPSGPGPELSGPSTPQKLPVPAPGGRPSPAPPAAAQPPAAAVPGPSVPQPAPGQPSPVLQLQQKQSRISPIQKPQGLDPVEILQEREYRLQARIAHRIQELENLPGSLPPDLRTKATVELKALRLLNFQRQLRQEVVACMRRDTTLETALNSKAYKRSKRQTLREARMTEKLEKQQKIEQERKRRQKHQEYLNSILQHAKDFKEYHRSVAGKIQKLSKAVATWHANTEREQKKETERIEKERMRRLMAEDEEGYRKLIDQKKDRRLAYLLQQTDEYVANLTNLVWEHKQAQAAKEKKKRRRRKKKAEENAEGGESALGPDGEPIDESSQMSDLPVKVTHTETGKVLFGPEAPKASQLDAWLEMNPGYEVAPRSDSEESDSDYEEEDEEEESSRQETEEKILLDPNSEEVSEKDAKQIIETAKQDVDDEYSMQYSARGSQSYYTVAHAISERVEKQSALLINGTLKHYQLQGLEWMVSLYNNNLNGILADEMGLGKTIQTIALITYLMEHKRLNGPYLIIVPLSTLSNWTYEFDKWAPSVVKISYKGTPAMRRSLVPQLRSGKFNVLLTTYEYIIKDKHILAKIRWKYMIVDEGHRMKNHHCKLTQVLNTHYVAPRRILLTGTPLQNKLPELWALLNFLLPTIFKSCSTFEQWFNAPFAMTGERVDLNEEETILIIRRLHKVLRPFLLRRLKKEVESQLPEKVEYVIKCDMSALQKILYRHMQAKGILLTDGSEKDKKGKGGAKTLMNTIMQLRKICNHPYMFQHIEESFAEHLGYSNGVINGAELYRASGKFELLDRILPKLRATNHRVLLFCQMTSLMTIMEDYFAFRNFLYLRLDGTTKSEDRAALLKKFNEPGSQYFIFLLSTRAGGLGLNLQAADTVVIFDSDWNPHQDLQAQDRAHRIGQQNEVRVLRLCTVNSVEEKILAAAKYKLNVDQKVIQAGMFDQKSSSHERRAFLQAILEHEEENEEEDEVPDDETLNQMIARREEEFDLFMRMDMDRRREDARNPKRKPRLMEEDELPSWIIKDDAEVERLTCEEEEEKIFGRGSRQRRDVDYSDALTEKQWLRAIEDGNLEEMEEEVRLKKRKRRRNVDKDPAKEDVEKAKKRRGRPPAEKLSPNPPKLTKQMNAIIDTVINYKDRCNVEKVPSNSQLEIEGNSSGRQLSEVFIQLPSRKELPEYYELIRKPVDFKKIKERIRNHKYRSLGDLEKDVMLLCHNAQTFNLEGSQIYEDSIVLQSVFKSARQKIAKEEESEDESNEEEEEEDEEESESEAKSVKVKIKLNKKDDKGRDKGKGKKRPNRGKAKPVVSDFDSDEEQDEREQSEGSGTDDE
# procedure-details: In-cell Western screen of BRM degradation in SW1573 cells (Dmax and DC50)
# Type: cell-based
# run-conditions: BRM degradation; read-out: BRM DC50

smiles-representation | DC50
Cc1ncsc1-c1ccc([C@H](C)NC(=O)[C@@H]2C[C@@H](O)CN2C(=O)[C@@H](c2cc(N3CCC(CN4CCC(O[C@H]5C[C@H](C#C[C@H](C)n6cc(-c7cc(-c8ccccc8O)nnc7N)cn6)C5)CC4)CC3)no2)C(C)C)cc1 | < 2.5 nM
Cc1ncsc1-c1ccc([C@H](C)NC(=O)[C@@H]2C[C@@H](O)CN2C(=O)[C@@H](c2cc(OCCN3CCC(O[C@H]4C[C@H](Nc5cc(N6C7CCC6CN(c6cc(-c8ccccc8O)nnc6N)C7)ccn5)C4)CC3)no2)C(C)C)cc1 | < 2.5 nM
Cc1ncsc1-c1ccc([C@H](C)NC(=O)[C@@H]2C[C@@H](O)CN2C(=O)[C@H](c2cc(OCCN3CCC(O[C@H]4C[C@H](Oc5cc(N6C7CCC6CN(c6cc(-c8ccccc8O)nnc6N)C7)ccn5)C4)CC3)no2)C(C)C)nn1 | > 30 nM
Cc1ncsc1-c1ccc([C@H](C)NC(=O)[C@@H]2C[C@@H](O)CN2C(=O)[C@@H](c2cc(OCCN3CCC(O[C@H]4C[C@H](Oc5cc(N6C7CCC6CN(c6cc(-c8ccccc8O)nnc6N)C7)ccn5)C4)CC3)no2)C(C)C)nn1 | > 30 nM
Cc1ncsc1-c1ccc([C@H](C)NC(=O)[C@@H]2C[C@@H](O)CN2C(=O)[C@H](c2cc(N3CCN(CC#Cc4ncc(O[C@H]5C[C@H](Oc6cc(N7C8CCC7CN(c7cc(-c9ccccc9O)nnc7N)C8)ccn6)C5)cn4)CC3)no2)C(C)C)cc1 | > 30 nM
Cc1cc([C@H](C(=O)N2C[C@H](O)C[C@H]2C(=O)N[C@H](COCCOCCNc2ccc(-c3ccccc3O)nn2)c2ccc(-c3scnc3C)cc2)C(C)C)on1 | > 30 nM
Cc1cc([C@H](C(=O)N2C[C@H](O)C[C@H]2C(=O)N[C@@H](C)c2ccc(-c3scnc3C)cc2)[C@@H](C)COCCCOc2cc(N3C4CCC3CN(c3cc(-c5ccccc5O)nnc3N)C4)ccn2)on1 | > 30 nM
Cc1ncsc1-c1ccc([C@H](C)NC(=O)[C@@H]2C[C@@H](O)CN2C(=O)[C@@H](c2cc(OCCN3CCC(O[C@H]4C[C@H](Oc5cc(N6C7CCC6CN(c6cc(N)nc8nc(-c9ccccc9O)cn68)C7)ccn5)C4)CC3)no2)C(C)C)cc1 | > 30 nM
